- assayed.system: Axl (Homo sapiens, UniProt P30530)
- Construct: endogenous in cells; host or cells: HeLa cells
- Sequence (P30530 26-894): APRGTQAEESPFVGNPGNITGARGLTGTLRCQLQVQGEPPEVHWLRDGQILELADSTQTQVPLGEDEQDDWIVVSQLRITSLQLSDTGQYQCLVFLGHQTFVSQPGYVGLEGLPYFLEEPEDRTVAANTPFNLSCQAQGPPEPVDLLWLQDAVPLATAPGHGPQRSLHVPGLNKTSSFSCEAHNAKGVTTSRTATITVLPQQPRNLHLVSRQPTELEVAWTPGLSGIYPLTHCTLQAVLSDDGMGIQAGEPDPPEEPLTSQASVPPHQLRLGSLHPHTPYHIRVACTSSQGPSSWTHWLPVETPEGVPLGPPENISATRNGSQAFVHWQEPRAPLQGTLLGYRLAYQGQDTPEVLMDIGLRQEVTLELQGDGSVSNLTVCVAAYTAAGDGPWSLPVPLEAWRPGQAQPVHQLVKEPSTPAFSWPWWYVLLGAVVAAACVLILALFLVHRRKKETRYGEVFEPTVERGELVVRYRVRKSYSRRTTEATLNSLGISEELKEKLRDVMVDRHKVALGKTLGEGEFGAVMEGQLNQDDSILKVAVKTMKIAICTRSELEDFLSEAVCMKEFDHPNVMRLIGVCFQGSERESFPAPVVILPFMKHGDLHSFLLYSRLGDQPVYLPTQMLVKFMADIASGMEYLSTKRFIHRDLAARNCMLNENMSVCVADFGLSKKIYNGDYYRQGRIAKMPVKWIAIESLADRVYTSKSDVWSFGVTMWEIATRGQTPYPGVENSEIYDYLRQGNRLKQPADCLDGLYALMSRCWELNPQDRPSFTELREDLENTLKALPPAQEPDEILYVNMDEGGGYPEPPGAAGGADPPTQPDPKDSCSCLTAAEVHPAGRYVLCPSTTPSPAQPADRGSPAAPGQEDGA
- measurement.protocol: Phospho-Akt in-cell Western assay (inhibition of Axl activity)
- Format: cell-based
- assay.context: inhibition of Axl activity, phospho-Akt in-cell Western assay; Table 1
recorded.endpoint: IC50

Take a look at these entries with their results.
molecule: CC(C)(C)C(=O)Nc1ccc(C(=O)n2nc(Nc3ccc(OCCN4CCCC4)cc3)nc2N)cc1 [compound 290]
IC50: 10 to 20 µM
//
molecule: COc1ccc(C(=O)n2nc(Nc3ccc(OCCN4CCCCC4)cc3)nc2N)cc1OC [compound #21]
IC50: < 1 µM

Pending molecule:
Consider the molecule COc1cc(OC)cc(C(=O)n2nc(Nc3ccc(OCCN4CCCCC4)cc3)nc2N)c1 [compound #19] and give its measured IC50.
< 1 µM

---

The entries below come with measured IC50 values attached.
- assayed.system: Axl (Homo sapiens)
- Construct: endogenous in cells; host or cells: HeLa cells
- measurement.protocol: Phospho-Akt in-cell Western assay (inhibition of Axl activity)
- Format: cell-based
- assay.context: Table 5; Hela cells, Axl antibody cross-linking stimulation, phospho-Akt chemiluminescence

molecule: Cc1cccc(C(=O)n2nc(Nc3ccc4oc(C(=O)NCCOC5CCCCO5)cc4c3)nc2N)c1 (stereo not drawn)
assayed.system: Axl (Homo sapiens)
IC50: 1 to 10 µM

molecule: Cc1cccc(C(=O)n2nc(Nc3ccc4cn(C)nc4c3)nc2N)c1
assayed.system: Axl (Homo sapiens)
IC50: 1 to 10 µM

Moving on to another molecule below.
Would you mind telling me what IC50 value was observed for CC(C)Oc1ccc(C(=O)n2nc(Nc3ccc4c(c3)NC(=O)C(F)(F)O4)nc2N)cc1 ?
> 20 µM

All values here come from patent US8389557B2.
